# EXPERIMENTAL SYSTEM: Tyrosine-protein kinase ITK/TSK (Homo sapiens)
# Sequence (Q08881 whole entry): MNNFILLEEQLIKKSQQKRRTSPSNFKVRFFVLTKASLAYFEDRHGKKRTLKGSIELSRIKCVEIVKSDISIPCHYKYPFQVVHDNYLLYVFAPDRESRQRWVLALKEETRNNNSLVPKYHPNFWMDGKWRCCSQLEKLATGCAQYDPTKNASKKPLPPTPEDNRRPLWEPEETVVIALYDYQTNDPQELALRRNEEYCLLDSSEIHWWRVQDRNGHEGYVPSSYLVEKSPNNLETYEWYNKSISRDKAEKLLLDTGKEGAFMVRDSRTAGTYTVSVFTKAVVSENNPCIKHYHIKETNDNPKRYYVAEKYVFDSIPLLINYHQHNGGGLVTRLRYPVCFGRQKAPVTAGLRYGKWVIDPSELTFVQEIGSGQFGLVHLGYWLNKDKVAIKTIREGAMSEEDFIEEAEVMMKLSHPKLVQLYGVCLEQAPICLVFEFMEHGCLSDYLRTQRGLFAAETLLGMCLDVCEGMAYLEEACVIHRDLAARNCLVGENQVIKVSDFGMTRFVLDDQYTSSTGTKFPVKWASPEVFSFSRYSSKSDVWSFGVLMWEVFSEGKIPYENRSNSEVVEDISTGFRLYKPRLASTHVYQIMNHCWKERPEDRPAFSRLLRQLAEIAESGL
# ASSAY DETAILS: Inhibition of human ITK expressed in chicken DT40 cells assessed as calcium influx by FLIPR
# Type: cell-based
pIC50: −log10 of the molar value.
Here, each record is paired with measured pIC50 data.

Field: example entries. Status: answers known.
# MOLECULE SMILES, EXPERIMENTAL SYSTEM, pIC50
data = [
    ("CN(C(=O)c1ccccc1)c1ccc2c(c1)nc(NC(=O)c1cscn1)n2CCC(N)=O", "Tyrosine-protein kinase ITK/TSK (Homo sapiens)", "< 5.30"),
    ("CN(C(=O)c1ccccc1)c1ccc2c(c1)[nH]/c(=N\\C(=O)c1cnco1)n2CCC(N)=O", "Tyrosine-protein kinase ITK/TSK (Homo sapiens)", "< 5.30"),
    ("CN(C(=O)c1ccccc1)c1ccc2c(c1)nc(NC(=O)c1ccc(Br)s1)n2CCC(N)=O", "Tyrosine-protein kinase ITK/TSK (Homo sapiens)", 7.00),
]

# input Recorded pIC50 for CN(C(=O)c1ccccc1)c1ccc2c(c1)[nH]/c(=N\C(=O)c1cncs1)n2CCC(N)=O with Tyrosine-protein kinase ITK/TSK (Homo sapiens), please?
# output < 5.30

# input Recorded pIC50 for COc1ccc(C(=O)Nc2nc3cc(N(C)C(=O)c4ccccc4)ccc3n2CCC(N)=O)cc1 with Tyrosine-protein kinase ITK/TSK (Homo sapiens), please?
# output < 5.30

# input Recorded pIC50 for CN(C(=O)c1ccccc1)c1ccc2c(c1)nc(NC(=O)c1ccc(N3CCNCC3)s1)n2CCC(N)=O with Tyrosine-protein kinase ITK/TSK (Homo sapiens), please?
# output < 5.49

# input Recorded pIC50 for CN(C(=O)c1ccccc1)c1ccc2c(c1)nc(NC(=O)c1ccc(N3CCOCC3)s1)n2CCC(N)=O with Tyrosine-protein kinase ITK/TSK (Homo sapiens), please?
# output < 5.49

# input Recorded pIC50 for CN(C(=O)c1ccccc1)c1ccc2c(c1)nc(NC(=O)c1cocn1)n2CCC(N)=O with Tyrosine-protein kinase ITK/TSK (Homo sapiens), please?
# output < 5.30

# credit: ChEMBL document CHEMBL1143295
